System: ECHORC (Watergrass (Calif.))
Assay: Preemergence weed control under flooded paddy conditions
Format: in vivo, Echinochloa oryzoides
Settings: 0.1250 kg/ha, rated 3-4 weeks after treatment
Doc: threshold 7 (exclusive). Items with ECHORC herbicidal effect rating beneath it return YES; others return NO.

See these solved cases before continuing.
CCOC(=O)CN1C(=O)C(CC(=O)NS(=O)(=O)CC)SC1=Nc1cc(-n2c(=O)cc(C(F)(F)F)n(C)c2=O)c(F)cc1Cl (stereo not drawn) [Compound 103] :: YES
Cn1c(C(F)(F)F)cc(=O)n(-c2cc(N=C3SCC(=O)N3C3CCOC3=O)c(Cl)cc2F)c1=O (stereo not drawn) [Compound 73] :: YES
CCOC(=O)CN1C(=O)C(CC(=O)NS(=O)(=O)c2ccccc2)SC1=Nc1cc(-n2c(=O)cc(C(F)(F)F)n(C)c2=O)c(F)cc1Cl (stereo not drawn) [Compound 100] :: YES
CCOC(=O)CN1C(=O)C(CC(=O)OC(C)C)SC1=Nc1cc(-n2c(=O)cc(C(F)(F)F)n(C)c2=O)c(F)cc1Cl (stereo not drawn) [Compound 60] :: NO

Next molecule, please.
Below 7 on ECHORC herbicidal effect rating? Entry Cn1c(C(F)(F)F)cc(=O)n(-c2cc(N=C3SCC(=O)N3CC(=O)OCC#N)c(Cl)cc2F)c1=O [Compound 109]
NO
